molecular target: LANA–DNA interaction (LANA DBD aa934-1162 wild type / LBS1) (Human herpesvirus 8 type P); construct: LANA DBD (aa934-1162) wild type protein (200 nM final) was incubated with; assay: EMSA, LANA DBD wild type with LBS1
Sequence (Q9QR71 901-1129): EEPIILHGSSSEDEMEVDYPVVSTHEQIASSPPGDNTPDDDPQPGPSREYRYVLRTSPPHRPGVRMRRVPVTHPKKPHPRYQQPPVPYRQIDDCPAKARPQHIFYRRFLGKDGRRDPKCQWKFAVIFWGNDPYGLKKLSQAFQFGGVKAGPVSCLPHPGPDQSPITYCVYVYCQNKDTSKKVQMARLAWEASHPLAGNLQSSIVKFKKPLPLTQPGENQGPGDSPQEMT
experimental_endpoint: pIC50
In plain terms, pIC50 is the concentration in mol/L turned into minus its base-10 logarithm.

# pIC50 lookup, item COc1ccc(-c2cc(C)c(-n3cc(-c4ccc(C(=O)O)cc4)nn3)cn2)c(Cl)c1
3.69

====

molecular target: LANA–DNA interaction (oligomerization-deficient LANA DBD aa 1008–1146 mutant / LBS1) (Human herpesvirus 8 (Kaposi's sarcoma-associated herpesvirus), UniProt Q76SB0); test: Electrophoretic mobility shift assay (EMSA), LANA DBD mutant with LBS1 oligonucleotide; format: biochemical, Kaposi's sarcoma-associated herpesvirus (KSHV); conditions: compound at 250 μM; LBS1 oligonucleotide; LANA aa 1008–1146 mutant
# note: exactly 40% is not below, so it is condition not met; use condition met for Inhibition (EMSA, LBS1) @250 μM strictly under it

Consider the worked cases shown below.
compound: Cc1cc(-c2ccc(O)nc2)ncc1-n1cc(-c2ccc(C(=O)O)cc2)nn1 [Compound 8]
cat: condition not met
//
compound: Cc1cc(-c2ccc(C(=O)O)cc2)ncc1-n1cc(-c2ccc(C(=O)O)cc2)nn1 [Compound 27]
cat: condition not met
//
compound: Cc1cc(-c2cncnc2)ncc1-n1cc(-c2ccc(C(=O)O)cc2)nn1 [Compound 6]
cat: condition not met
//
compound: Cc1cc(-c2ccccc2O)ncc1-n1cc(-c2ccc(C(=O)O)cc2)nn1 [Compound 21]
cat: condition not met
//
compound: COc1ccc(-c2cc(C)c(-n3cc(-c4ccc(C(=O)O)cc4)nn3)cn2)c(Cl)c1 [Compound 20]
cat: condition not met

For COc1ncc(C)cc1-c1cc(C)c(-n2cc(-c3ccc(C(=O)O)cc3)nn2)cn1 [Compound 11] , is the recorded Inhibition (EMSA, LBS1) @250 μM below the cut-off of 40%?
condition not met

Same question for COc1ccc(COc2cccc(-c3cc(C)c(-n4cc(-c5ccc(C(=O)O)cc5)nn4)cn3)c2)cc1 [Compound 34] please.
condition met

Next compound up: COc1ccccc1-c1cc(C)c(-n2cc(-c3ccc(C(=O)O)cc3)nn2)cn1 [Compound 17]
condition met

And what about the compound Cc1cc(-c2ccccc2Cl)ncc1-n1cc(-c2ccc(C(=O)O)cc2)nn1 [Compound 14] ?
condition not met

====

assay: Kinetic solubility; format: physicochemical; conditions: PBS with 1% DMSO; 1% DMSO in PBS, pH 7.4
Items are presented alongside their recorded solubility kinetic at 5 min.

molecule: COc1ccc(-c2cc(C)c(-n3cc(-c4ccc(C(=O)O)cc4)nn3)cn2)cc1 [Compound 19]
solubility kinetic at 5 min: > 200 µM
--
molecule: Cc1cc(-c2ccccc2O)ncc1-n1cc(-c2ccc(C(=O)O)cc2)nn1 [Compound 21]
solubility kinetic at 5 min: 137 µM

Which value of solubility kinetic at 5 min has been reported for Cc1cc(-c2ccc(C(=O)O)cc2)ncc1-n1cc(-c2ccc(C(=O)O)cc2)nn1 [Compound 27] in the records?
> 200 µM

COc1cncc(-c2cc(C)c(-n3cc(-c4ccc(C(=O)O)cc4)nn3)cn2)c1 [Compound 9] ?
139 µM

Further, for COc1ccc(-c2cc(C)c(-n3cc(-c4ccc(C(=O)O)cc4)nn3)cn2)c(Cl)c1 [Compound 20] ?
> 200 µM

Cool, now COc1ncc(C)cc1-c1cc(C)c(-n2cc(-c3ccc(C(=O)O)cc3)nn2)cn1 [Compound 11]
> 200 µM

Record: Cc1cc(-c2ccccc2Cl)ncc1-n1cc(-c2ccc(C(=O)O)cc2)nn1 [Compound 14]
> 200 µM

====

biological target: LANA–DNA interaction (oligomerization-deficient LANA DBD aa 1008–1146 mutant / LBS1) (Human herpesvirus 8 (Kaposi's sarcoma-associated herpesvirus), UniProt Q76SB0); experiment: Electrophoretic mobility shift assay (EMSA), LANA DBD mutant with LBS1 oligonucleotide; type: biochemical, Kaposi's sarcoma-associated herpesvirus (KSHV); conditions: compound at 250 μM; LBS1 oligonucleotide; LANA aa 1008–1146 mutant
experimental_endpoint: Inhibition (EMSA, LBS1) @250 μM

Endpoint output: Inhibition (EMSA, LBS1) @250 μM of CNC(=O)c1cccc(-c2cc(C)c(-n3cc(-c4ccc(C(=O)O)cc4)nn3)cn2)c1 [Compound 24] . Value?
40%
